measuredTarget: Bromodomain-containing protein 2 (Homo sapiens)
Sequence (P25440 whole entry): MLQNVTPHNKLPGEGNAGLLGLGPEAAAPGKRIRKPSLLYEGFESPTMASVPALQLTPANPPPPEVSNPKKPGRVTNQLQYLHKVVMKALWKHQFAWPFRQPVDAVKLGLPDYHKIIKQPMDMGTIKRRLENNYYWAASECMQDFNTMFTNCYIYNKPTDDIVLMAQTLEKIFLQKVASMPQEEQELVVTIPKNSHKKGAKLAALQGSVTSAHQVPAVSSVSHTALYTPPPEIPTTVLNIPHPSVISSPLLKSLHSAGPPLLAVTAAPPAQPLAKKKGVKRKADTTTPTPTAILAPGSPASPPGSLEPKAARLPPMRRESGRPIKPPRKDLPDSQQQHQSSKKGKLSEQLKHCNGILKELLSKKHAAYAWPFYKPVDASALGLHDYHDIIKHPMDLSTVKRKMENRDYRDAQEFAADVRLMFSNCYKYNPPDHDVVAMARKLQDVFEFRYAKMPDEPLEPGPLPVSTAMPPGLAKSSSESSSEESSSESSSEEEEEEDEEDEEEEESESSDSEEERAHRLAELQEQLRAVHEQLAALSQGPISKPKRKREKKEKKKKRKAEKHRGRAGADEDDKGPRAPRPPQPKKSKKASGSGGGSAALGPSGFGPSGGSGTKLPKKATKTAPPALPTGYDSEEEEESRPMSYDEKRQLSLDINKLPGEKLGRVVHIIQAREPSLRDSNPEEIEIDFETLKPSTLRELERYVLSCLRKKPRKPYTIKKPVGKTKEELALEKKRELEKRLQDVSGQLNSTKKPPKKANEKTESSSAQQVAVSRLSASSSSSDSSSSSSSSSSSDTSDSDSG
testProtocol: Affinity Biochemical interaction: (BROMOscan assay) EUB0002282a BRD2
Set-up: mode of action Inhibitor, recommended concentration 1 uM
pKd: −log10 of the molar value.
property: pKd

mol	property	numericReadout
Cc1cc(-c2ccc3nc(C4CCOCC4)n(CCOC(F)(F)F)c3c2)cn(C)c1=O	pKd	8.28

====

measuredTarget: Histone-lysine N-methyltransferase EZH1 (Homo sapiens, UniProt Q92800)
Sequence (Q92800 whole entry): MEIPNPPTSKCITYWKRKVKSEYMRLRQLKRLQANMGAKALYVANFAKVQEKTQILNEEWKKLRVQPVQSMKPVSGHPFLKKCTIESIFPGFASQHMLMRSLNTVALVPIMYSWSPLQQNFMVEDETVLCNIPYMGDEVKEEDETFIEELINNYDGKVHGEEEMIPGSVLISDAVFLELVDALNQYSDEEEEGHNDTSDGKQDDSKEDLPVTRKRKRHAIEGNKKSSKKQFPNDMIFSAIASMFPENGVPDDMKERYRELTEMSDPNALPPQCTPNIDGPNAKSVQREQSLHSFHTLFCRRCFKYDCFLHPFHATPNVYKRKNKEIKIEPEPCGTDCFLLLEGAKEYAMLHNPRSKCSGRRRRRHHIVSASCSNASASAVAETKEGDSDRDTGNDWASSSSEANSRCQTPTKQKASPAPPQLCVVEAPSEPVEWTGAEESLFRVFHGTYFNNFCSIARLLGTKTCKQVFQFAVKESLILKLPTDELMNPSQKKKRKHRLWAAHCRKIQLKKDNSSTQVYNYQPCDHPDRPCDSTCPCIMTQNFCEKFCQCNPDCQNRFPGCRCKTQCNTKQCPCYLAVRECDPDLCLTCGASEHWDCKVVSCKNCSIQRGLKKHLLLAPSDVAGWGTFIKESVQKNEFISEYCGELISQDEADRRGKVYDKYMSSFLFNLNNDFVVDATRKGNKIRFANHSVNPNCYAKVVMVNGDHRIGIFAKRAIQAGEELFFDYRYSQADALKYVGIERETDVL
testProtocol: Affinity Biochemical interaction: (inhibition of EZH1 for both SAM and peptide substrates using a Flashplate assay to measure the transfer of a tritiated methyl group from SAM to the peptide) EUB0002228a EZH1
Format: functional
Set-up: mode of action Inhibitor, recommended concentration 1 uM
property: Ki (µM)

mol	numericReadout
CCN(c1cc(C#CCN2CCOCC2)cc(C(=O)NCc2c(C)cc(C)[nH]c2=O)c1C)[C@H]1CC[C@H](N(C)CCOC)CC1	0.045

====

measuredTarget: Protein arginine N-methyltransferase 5 (Homo sapiens)
Sequence (O14744 whole entry): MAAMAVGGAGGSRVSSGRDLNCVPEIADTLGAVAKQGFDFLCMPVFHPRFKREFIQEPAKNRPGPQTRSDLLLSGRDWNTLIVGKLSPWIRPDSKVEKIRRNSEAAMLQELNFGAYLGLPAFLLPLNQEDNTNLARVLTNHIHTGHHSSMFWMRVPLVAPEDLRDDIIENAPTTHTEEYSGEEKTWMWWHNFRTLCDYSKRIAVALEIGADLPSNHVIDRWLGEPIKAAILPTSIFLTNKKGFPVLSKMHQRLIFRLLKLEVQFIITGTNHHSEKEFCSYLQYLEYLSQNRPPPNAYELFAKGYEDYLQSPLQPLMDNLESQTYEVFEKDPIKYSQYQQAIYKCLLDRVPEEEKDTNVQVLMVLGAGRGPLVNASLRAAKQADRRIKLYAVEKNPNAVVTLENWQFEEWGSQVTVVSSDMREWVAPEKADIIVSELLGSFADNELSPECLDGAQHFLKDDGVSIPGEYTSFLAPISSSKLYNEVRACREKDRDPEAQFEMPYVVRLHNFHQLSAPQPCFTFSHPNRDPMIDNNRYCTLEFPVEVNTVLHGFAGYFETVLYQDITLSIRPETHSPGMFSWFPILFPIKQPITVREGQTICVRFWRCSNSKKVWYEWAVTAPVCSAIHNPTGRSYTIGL
testProtocol: Affinity Biochemical interaction: (inhibition of histone H4 (1-21) methylation) EUB0002319a PRMT5
Assay type: functional
Set-up: mode of action Inhibitor, recommended concentration 1 uM
property: IC50 (nM)

compound	unitSymbol	numericReadout
Nc1ncnc2c1ncn2[C@@H]1O[C@H](C[C@@H](N)CC[C@H](N)C(=O)O)[C@@H](O)[C@H]1O [SINEFUNGIN]	nM	310

====

measuredTarget: cAMP and cAMP-inhibited cGMP 3',5'-cyclic phosphodiesterase 10A (Homo sapiens)
Sequence (Q9Y233 whole entry): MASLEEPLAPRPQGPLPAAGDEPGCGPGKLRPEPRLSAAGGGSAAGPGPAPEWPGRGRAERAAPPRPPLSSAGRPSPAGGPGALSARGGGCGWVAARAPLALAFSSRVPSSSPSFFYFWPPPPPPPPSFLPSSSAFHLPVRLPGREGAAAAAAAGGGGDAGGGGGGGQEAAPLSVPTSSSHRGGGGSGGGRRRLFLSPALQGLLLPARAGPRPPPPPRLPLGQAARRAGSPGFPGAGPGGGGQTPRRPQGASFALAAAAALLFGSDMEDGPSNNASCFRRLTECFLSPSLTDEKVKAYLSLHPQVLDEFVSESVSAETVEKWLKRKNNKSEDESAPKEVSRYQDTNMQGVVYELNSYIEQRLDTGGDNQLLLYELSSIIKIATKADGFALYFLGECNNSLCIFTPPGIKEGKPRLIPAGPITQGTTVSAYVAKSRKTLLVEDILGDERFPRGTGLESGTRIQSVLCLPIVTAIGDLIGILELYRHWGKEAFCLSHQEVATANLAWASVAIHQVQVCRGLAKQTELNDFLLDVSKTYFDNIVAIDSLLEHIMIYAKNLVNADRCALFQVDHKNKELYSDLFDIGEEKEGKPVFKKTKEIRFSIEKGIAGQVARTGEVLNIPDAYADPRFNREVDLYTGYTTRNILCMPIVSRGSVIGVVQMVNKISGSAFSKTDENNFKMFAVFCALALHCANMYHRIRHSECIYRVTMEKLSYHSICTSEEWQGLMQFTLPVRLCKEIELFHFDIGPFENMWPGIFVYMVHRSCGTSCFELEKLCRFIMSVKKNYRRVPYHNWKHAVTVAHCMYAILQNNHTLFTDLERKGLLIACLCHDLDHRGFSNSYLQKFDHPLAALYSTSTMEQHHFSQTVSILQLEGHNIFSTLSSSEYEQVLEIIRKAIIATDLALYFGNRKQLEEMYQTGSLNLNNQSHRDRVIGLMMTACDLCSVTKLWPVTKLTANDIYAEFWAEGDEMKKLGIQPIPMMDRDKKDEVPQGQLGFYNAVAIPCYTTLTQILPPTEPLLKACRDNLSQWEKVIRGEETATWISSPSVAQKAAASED
testProtocol: Affinity Biochemical interaction: (inhibition of enzyme activity with [3H]cGMP or [3H]cAMP as the substrate) EUB0002477a PDE10A
Assay type: functional
Design: mode of action Inhibitor, recommended concentration 1 uM
pIC50: −log10 of the molar value.

mol	pIC50
C[C@H](Nc1nc2c(cnn2C2CCCC2)c(=O)[nH]1)c1ccc(Cl)cc1	8.64

====

measuredTarget: Caspase-2 (Homo sapiens, UniProt P42575)
Sequence (P42575 170-325 limits assumed): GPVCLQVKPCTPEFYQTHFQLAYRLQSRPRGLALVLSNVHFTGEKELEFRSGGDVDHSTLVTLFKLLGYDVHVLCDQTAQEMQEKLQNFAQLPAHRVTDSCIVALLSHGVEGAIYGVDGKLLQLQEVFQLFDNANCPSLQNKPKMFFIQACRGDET
Sequence (P42575 334-452 limits assumed): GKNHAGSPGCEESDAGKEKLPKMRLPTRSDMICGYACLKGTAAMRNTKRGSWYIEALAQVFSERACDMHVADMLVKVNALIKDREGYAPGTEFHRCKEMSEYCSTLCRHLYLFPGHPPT
testProtocol: Affinity Biochemical interaction: (enzymatic assay (fluorogenic substrate cleavage)) EUB0002196a CASP2
Residues, ends and D or L forms follow the SMILES beside them.
property: Ki (nM)

compound	numericReadout
CC(=O)N[C@H](C(=O)N[C@@H](CC(=O)O)C(=O)N[C@H](C(=O)N[C@@H](C)C(=O)N[C@H](C=O)CC(=O)O)C(C)C)C(C)C (Ac-VDVAD-aldehyde)	3.5

====

measuredTarget: Caspase-6 (Homo sapiens)
Sequence (P55212 24-179 limits assumed): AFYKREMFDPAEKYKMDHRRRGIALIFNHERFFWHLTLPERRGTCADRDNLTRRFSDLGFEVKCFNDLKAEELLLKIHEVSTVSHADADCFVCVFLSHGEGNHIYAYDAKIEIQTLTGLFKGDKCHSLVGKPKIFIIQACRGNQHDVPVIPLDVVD
Sequence (P55212 194-293 limits assumed): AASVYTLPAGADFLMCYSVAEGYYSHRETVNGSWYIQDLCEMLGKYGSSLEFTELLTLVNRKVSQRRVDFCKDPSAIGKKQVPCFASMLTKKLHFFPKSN
testProtocol: Affinity Biochemical interaction: (enzymatic assay (fluorogenic substrate cleavage)) EUB0002190aAD CASP6
pKi: −log10 of the molar value. Residues, ends and D or L forms follow the SMILES beside them. *: point of attachment. Boc = CC(C)(C)OC(=O)*

compound	pKi
CC(C)[C@H](NC(=O)[C@H](CCC(=O)O)NC(=O)[C@H](C)NC(=O)OC(C)(C)C)C(=O)N[C@H](C=O)CC(=O)O (Boc-AEVD-aldehyde)	7.28

====

measuredTarget: NAD-dependent protein deacetylase sirtuin-7 (Homo sapiens)
Sequence (Q9NRC8 whole entry): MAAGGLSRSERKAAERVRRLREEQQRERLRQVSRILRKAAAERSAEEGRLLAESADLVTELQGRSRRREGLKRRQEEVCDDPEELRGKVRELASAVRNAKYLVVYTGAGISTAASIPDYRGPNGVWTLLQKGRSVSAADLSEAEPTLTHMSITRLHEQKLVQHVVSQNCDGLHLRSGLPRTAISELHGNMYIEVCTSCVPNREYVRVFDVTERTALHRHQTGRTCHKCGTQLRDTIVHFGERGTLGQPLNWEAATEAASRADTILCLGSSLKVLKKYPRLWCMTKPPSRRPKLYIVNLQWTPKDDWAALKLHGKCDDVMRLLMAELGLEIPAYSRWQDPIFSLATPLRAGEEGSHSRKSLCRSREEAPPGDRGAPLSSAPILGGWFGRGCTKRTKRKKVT
testProtocol: Affinity Biochemical interaction: (inhibition of deacetylase activity, luminescence measurement using the SIRT7 assay kit) EUB0002717a SIRT7

mol	IC50 (nM)
Nc1cccc(Nc2ncc(-c3ccc(Cl)cc3)o2)c1	325
